From: PubChem BioAssay AID493131

# activation annotations
molecular target: Protein FosB (Mus musculus); assay: activators of delta FosB homodimer, primary screen, biochemical, fluorescence polarization, TAMRA-CDK5 oligo, single point (AID 493131); conditions: purified delta FosB, at 25 µM, stronger effect = higher value, percent of positive-control signal above neutral wells;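 also: fluorescence polarization rise as delta FosB binds a TAMRA Cdk5 AP-1 oligo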
In all, about 340,000 compounds went through this assay and about 3,300 (0.97%) were called active. This is one part of a sample in which actives are shown more often than they occur.
Parameter Measured: activation (%)

{"columns": ["Compound Structure", "System Under Test", "Units Text", "Measured"],
 "data": [
  ["O=C(COc1ccccc1Cl)Nc1ccc(C(=O)c2ccc(C(=O)O)cc2)cc1", "Protein FosB (Mus musculus)", "%", -0.74],
  ["CC(=O)Nc1ccc(S(=O)(=O)N2CCC(NC(=O)c3ccccc3)CC2)cc1", "Protein FosB (Mus musculus)", "%", 3.46],
  ["COC(=O)c1ccc(S(=O)(=O)N2CCc3ccccc3C2)cc1", "Protein FosB (Mus musculus)", "%", -1.34],
  ["COc1ccccc1-n1c(=S)[nH]c2c(sc(=S)n2-c2ccc(C)cc2C)c1=O", "Protein FosB (Mus musculus)", "%", -9.95],
  ["c1ccc2c(CCN3CCNC[C@H]3Cc3cccc4ccccc34)cccc2c1", "Protein FosB (Mus musculus)", "%", 12.1],
  ["Cc1ccc(NC(=O)CN2CCc3ccccc3C2)cc1C", "Protein FosB (Mus musculus)", "%", -4.61],
  ["CC(=O)Nc1ccc(NC(=O)COc2ccccc2C(=O)Nc2cccc(Cl)c2Cl)cc1", "Protein FosB (Mus musculus)", "%", 26],
  ["c1ccc(C[C@H]2CNCCN2CCC23CC4CC(CC(C4)C2)C3)cc1", "Protein FosB (Mus musculus)", "%", 20.1],
  ["O=C1CCNCCN1[C@H](CO)Cc1ccccc1", "Protein FosB (Mus musculus)", "%", -2.28],
  ["CCOc1ccc(-n2c(SCC(=O)Nc3ccc(OC)cc3)nc3sc4c(c3c2=O)CCN(C)C4)cc1", "Protein FosB (Mus musculus)", "%", 50.3],
  ["O=C(COc1ccccc1Cl)Nc1ccccc1C(=O)NC1CC1", "Protein FosB (Mus musculus)", "%", -11.8]
]}

###

target: Protein FosB (Mus musculus); assay: activators of delta FosB homodimer, primary screen, biochemical, fluorescence polarization, TAMRA-CDK5 oligo, single point (AID 493131); settings: purified delta FosB, at 25 µM, stronger effect = higher value, percent of positive-control signal above neutral wells;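 also: fluorescence polarization rise as delta FosB binds a TAMRA Cdk5 AP-1 oligo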
The campaign covered roughly 340,000 compounds. About 3,300 (0.97%) were called active. What follows is part of a selection rich in actives, with near analogues and random picks from the rest.

{"columns": ["Compound Structure", "System Under Test", "activation"],
 "data": [
  ["CCOC(=O)C1=C(O)/C(=C/c2ccc(OCC(=O)Nc3ccc(C)cc3)cc2)N=C1C", "Protein FosB (Mus musculus)", "30.5% (active)"],
  ["CCn1cc(C(=O)OCC(=O)Nc2cccc(C)c2)c(=O)c2ccc(C)nc21", "Protein FosB (Mus musculus)", "-9.83% (inactive)"],
  ["Cc1ccc(NC(=O)COc2ccc(/C=C3/NC(=O)NC3=O)cc2)cc1", "Protein FosB (Mus musculus)", "73.1% (active)"],
  ["CCOC(=O)C1=C(O)/C(=C/c2cc(C)n(-c3ccccc3)c2C)N=C1C", "Protein FosB (Mus musculus)", "-14.4% (inactive)"],
  ["C#Cc1ccc([C@@H]2C=C(C(=O)O)O[C@H](OCCCCO)C2)cc1", "Protein FosB (Mus musculus)", "-5.67% (inactive)"]
]}
